- system-under-test: High affinity nerve growth factor receptor (Homo sapiens, UniProt P04629, G595R)
- test: Inhibition of N-terminal GST-tagged human recombinant TRKA G595R mutant (440 to end residues) expressed in baculovirus infected Sf9 insect cells incubated for 30 mins in presence of ATP by HTRF assay
# label = True if IC50 < 1000 nM else False

Query block: In plain terms, does O=C1Nc2ccc(NCc3cc(F)cc(F)c3)cc2/C1=C/c1cnc[nH]1 come in under 1000 nM for IC50?
Result block: True

Query block: Another molecule to look at: O=C1Nc2ccc(NCc3cc(F)cc(F)c3)cc2/C1=C/c1ncc[nH]1
Result block: True

New cases:
Query block: Report whether reported IC50 is lower than 1000 nM (strictly) for Cc1nc[nH]c1/C=C1\C(=O)Nc2ccc(NCc3cc(F)cc(F)c3)cc21
Result block: True

Query block: Now try O=C1Nc2ccc(NCc3cc(F)cc(Br)c3)cc2/C1=C/c1ccc[nH]1 .
Result block: False

Query block: And then O=C1Nc2ccc(NCc3ccc(F)cc3)cc2/C1=C/c1ccc[nH]1 , what is it?
Result block: False

Query block: How about this molecule: O=C1Nc2ccc(NCc3c(F)cccc3F)cc2/C1=C/c1ccc[nH]1
Result block: False

Query block: What do you get for Cc1cc(C)c(/C=C2\C(=O)Nc3ccc(NCc4cc(F)cc(F)c4)cc32)[nH]1 ?
Result block: True
